# tgt: human CYP1A2 (Homo sapiens, UniProt P05177)
# Sequence (P05177 whole entry): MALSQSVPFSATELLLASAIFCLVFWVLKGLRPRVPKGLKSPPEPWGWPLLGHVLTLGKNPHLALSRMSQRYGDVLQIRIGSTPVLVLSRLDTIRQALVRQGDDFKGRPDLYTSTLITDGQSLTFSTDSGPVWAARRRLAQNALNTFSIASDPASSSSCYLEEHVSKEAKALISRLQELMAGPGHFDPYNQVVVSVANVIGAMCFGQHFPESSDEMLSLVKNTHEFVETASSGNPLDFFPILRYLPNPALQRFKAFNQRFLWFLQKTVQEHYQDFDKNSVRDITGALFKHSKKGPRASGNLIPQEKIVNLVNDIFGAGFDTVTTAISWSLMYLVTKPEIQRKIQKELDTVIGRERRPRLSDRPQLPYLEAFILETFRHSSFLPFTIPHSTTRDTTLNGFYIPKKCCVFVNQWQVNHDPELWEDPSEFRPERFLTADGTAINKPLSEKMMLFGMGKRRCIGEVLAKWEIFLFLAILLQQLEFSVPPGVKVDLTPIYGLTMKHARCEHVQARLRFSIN
# protocol summary: biochemical
# experimental conditions: CYP1A2 IC50
pIC50: −log10 of the molar value. Structures can show the parent of a compound that is named as a salt.
Returns Y if the recorded pIC50 is greater than or equal to 5, and N otherwise.

## Input # check: pIC50 of `CS(=O)(=O)c1ccc(-c2cn3ccccc3n2)cc1` is greater than or equal to 5
## Output Y

## Input Please answer likewise for CCN(CC)CCCN(c1ccccc1)C1Cc2ccccc2C1 [Aprindine hydrochloride]
## Output N

## Input What do you get for c1ccc2c(c1)c1cccc3ccc4cccc2c4c31 [Benzo(e)pyrene] ?
## Output Y

## Input Moving on to O=S1OCC2C(CO1)C1(Cl)C(Cl)=C(Cl)C2(Cl)C1(Cl)Cl (stereo not drawn) [Endosulfan]
## Output N

## Input Continue with `COc1nn(CSP(=S)(OC)OC)c(=O)s1`
## Output Y

## Input Follow-up entry: `Cc1c2ccccc2c(C)c2c1ccc1ccccc12`
## Output Y

## Input Try c1ccc2cc3c4ccccc4c4ccccc4c3cc2c1 [Dibenz[a,c]anthracene] next.
## Output Y

## Input For CCN(CC)CCOC(=O)C(Cc1cccc2ccccc12)CC1CCCO1 (stereo not drawn) [Nafronyl oxalate] then?
## Output N

## Input And then `c1ccc2c(c1)cc1ccc3cccc4ccc2c1c34` , what is it?
## Output Y

## Input What do you have for `CCOP(=S)(OCC)Oc1cnc2ccccc2n1` ?
## Output Y

## Input // next record `CC1=C(C)C(=O)C(CCCCC#CCCCC#CCO)=C(C)C1=O`
## Output Y
